- Assayed System: human PCSK9 (Homo sapiens)
- Test Summary: PCSK9 ligand binding assay (TR-FRET): interference with binding of human PCSK9 to human LDLR
- Test Parameters: efficacy (Amax), 100% = 1 uM unlabeled human PCSK9, 0% = DMSO
Quantity Kind: Max % inhibition (%)
Provide only the numeric value, understood in %.

Use the examples below as a reference point.
INSERT INTO measurements (smiles_repr, quantity_kind, recorded_result) VALUES
  ('CCC[C@@H]1CC(=O)N(Cc2c(F)cc(Cl)cc2Oc2ccc(-c3cnc(CN(C)C)n3C)cc2)[C@@H](C)C(=O)N[C@@H](CO)C(=O)N[C@@]2(Cc3ccc(Cl)cc3)CCCN(C2)C1=O', 'Max % inhibition', 101.3),
  ('CNCc1ncc(-c2ccc(Oc3cc(Cl)cc(F)c3CN3C(=O)C[C@@H](CC(F)(F)F)C(=O)N4CCC[C@@](Cc5ccc(Cl)cc5)(C4)N(C)C(=O)[C@H](COC)NC(=O)[C@@H]3C)cc2)n1C', 'Max % inhibition', 104.8);

Per the records, this molecule ( `COC[C@@H]1NC(=O)[C@H](C)N(Cc2ncc(Cl)cc2Oc2ccc(-c3cnc(CN(C)C)n3C)cc2)C(=O)C[C@@H](Cc2ccccc2)C(=O)N2CCC[C@@](Cc3ccc(Cl)cc3)(C2)NC1=O` ) has Max % inhibition equal to 102.6

The reported Max % inhibition of the molecule `C[C@@H](O)[C@@H]1NC(=O)[C@H](C)N(Cc2ccc(Cl)cc2Oc2ccc(-c3cnc(CN(C)C)n3C)cc2)C(=O)C[C@@H](CC(F)(F)F)C(=O)N2CCC[C@@](Cc3ccc(Cl)cc3)(C2)NC1=O` was 91.2

# Max % inhibition (molecule: `C[C@H]1C(=O)N[C@@H](CO)C(=O)N[C@@]2(Cc3ccc(Cl)cc3)CCCN(C2)C(=O)[C@H](CC(F)(F)F)CC(=O)N1Cc1c(F)cc(Cl)cc1Oc1ccc(-c2cnc(CN(C)C3CCC3)n2C)cc1` ) is 113.0

====

- Assayed System: human PCSK9 (Homo sapiens, UniProt Q8NBP7)
- Sequence (Q8NBP7 153-692): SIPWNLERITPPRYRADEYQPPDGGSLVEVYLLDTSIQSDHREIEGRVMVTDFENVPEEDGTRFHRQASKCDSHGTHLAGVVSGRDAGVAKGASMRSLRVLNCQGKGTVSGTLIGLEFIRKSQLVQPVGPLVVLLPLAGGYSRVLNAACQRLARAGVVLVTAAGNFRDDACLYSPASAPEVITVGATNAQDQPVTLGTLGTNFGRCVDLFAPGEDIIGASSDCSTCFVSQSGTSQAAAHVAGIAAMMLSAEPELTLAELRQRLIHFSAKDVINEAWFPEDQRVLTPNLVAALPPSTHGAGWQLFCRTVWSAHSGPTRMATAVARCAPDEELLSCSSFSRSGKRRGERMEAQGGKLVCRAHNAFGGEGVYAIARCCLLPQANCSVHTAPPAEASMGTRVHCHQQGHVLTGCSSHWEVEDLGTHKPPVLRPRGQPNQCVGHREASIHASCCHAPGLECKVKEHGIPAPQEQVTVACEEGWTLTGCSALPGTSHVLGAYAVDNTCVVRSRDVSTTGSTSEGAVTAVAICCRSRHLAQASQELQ
- Sequence (Q8NBP7 31-152 partner limits assumed): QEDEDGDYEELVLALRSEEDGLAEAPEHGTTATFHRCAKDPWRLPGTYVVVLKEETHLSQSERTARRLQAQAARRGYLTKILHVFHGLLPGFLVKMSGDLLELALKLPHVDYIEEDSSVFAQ
- Test Summary: PCSK9 ligand binding assay (TR-FRET): interference with binding of human PCSK9 to human LDLR
- Test Parameters: efficacy (Amax), 100% = 1 uM unlabeled human PCSK9, 0% = DMSO
Quantity Kind: Max % inhibition (%)
Give just the numeric value; % need not be written.

For the compound C[C@H]1C(=O)N[C@@H](CO)C(=O)N[C@@]2(Cc3ccc(Cl)cc3)CCCN(C2)C(=O)[C@H](CC(F)(F)F)CC(=O)N1Cc1c(F)cc(Cl)cc1Oc1ccc(-c2cnc(CN3CCC3)n2C)cc1 [Compound 28] , the measured Max % inhibition on human PCSK9 (Homo sapiens, UniProt Q8NBP7) was 114.2

Hey, human PCSK9 (Homo sapiens, UniProt Q8NBP7) data for COC[C@@H]1NC(=O)[C@H](C)N(Cc2c(F)cc(Cl)cc2Oc2ccc(-c3cnc(CN(C)C)n3C)cc2)C(=O)C[C@@H](Cc2cccc[n+]2[O-])C(=O)N2CCC[C@@](Cc3ccc(Cl)cc3)(C2)N(C)C1=O [Compound 3] : Max % inhibition came out at 113.9

Param item: CNCc1ncc(-c2ccc(Oc3cc(Cl)ccc3CN3C(=O)C[C@@H](Cc4ccccc4)C(=O)N4CCC[C@@](Cc5ccc(Cl)cc5)(C4)NC(=O)[C@H](CO)NC(=O)[C@@H]3C)cc2)n1C [Compound 150] ; param system: human PCSK9 (Homo sapiens, UniProt Q8NBP7); output Max % inhibition: 105.4
